Listed below: In vitro activity (%) compared with native peptide: vs GIP values for each entry.
- system-tested: T1, human GIP receptor (human, UniProt P48546 22-466)
- T1 sequence (looked up): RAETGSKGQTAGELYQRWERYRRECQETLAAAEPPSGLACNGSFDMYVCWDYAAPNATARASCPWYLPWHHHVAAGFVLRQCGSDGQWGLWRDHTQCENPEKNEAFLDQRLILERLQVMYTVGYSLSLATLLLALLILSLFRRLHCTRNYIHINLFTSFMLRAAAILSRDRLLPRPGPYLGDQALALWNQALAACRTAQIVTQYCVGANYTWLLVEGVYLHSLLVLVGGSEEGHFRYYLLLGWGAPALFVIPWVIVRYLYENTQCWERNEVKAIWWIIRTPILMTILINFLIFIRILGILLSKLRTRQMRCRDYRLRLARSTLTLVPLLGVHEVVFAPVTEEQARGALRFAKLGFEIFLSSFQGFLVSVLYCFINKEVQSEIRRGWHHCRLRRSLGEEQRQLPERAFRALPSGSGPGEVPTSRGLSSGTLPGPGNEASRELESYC
- run-description: cell-based or functional assay
Positions of bridges follow the written chain, without caps; N, C: chain ends. Non-standard residues stand in square brackets, D forms with d. No end group written: not given here. *: point of attachment. Acetyl(2-(4-imidazolyl)) = O=C(Cc1c[nH]cn1)*; Aib = CC(C)(N)C(=O)O

Please review the entries below; each comes with its answer.
Y[Aib]QGTFTSDYSKALDEKAAKDFVNWLLDQHPSSGQPPPSC (bridge 16-20) [triple agonist of SEQ ID NO: 102]; 58%
{Acetyl(2-(4-imidazolyl))}-[Aib]QGTFTSDYSIAMDEIHQKDFVNWLLNTKC (bridge 15-19; not fully specified) [triple agonist of SEQ ID NO: 94]; < 0.1%
{Acetyl(2-(4-imidazolyl))}-GQGTFTSDYSIQLDEIAVRDFVEWLKNGGPSSGAPPPSHG (not fully specified; also: ring from underlined residues, positions not shown) [triple agonist of SEQ ID NO: 14]; < 0.1%
H[Aib]QGTFTSDYSKYLDEKRAQEFVCWLLAQKGKKNDWKHNIT (not fully specified) [triple agonist of SEQ ID NO: 28]; < 0.1%
H[Aib]EGTFTSDYSIAMDEIHQKDFVDWLLAEKC (bridge 16-20; not fully specified) [triple agonist of SEQ ID NO: 80]; 0.1%

Now for another entry.
What value of In vitro activity (%) compared with native peptide: vs GIP has been reported for the following binder? {Acetyl(2-(4-imidazolyl))}-[Aib]QGTFTSDYSKYLDEKRQKEFVQWLLDTKC (bridge 15-19; not fully specified) [triple agonist of SEQ ID NO: 89]
< 0.1%
